Here, each record is paired with measured amyloid nucleation score data.
- Assay: amyloid nucleation score (Sup35N fusion, yeast selection) (log enrichment); library NNK2; higher = more nucleation; inactive = no reads after selection;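 note: zero at mode of non-aggregating sequences after 7 days selection at 30°C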
Answer with the value's number alone.

Query block: Endpoint output: amyloid nucleation score of DLKYLGLA . Value?
Result block: -0.535

---

- Assay: amyloid nucleation score (Sup35N fusion, yeast selection) (log enrichment); library NNK2; higher = more nucleation; inactive = no reads after selection
Observable: amyloid nucleation score
Answer with the value's number alone.

Query block: Endpoint output: amyloid nucleation score of IDCSFSFFVSPFRHPHSQED . Value?
Result block: 4.87

Query block: Also, MFVGSGRDCTVTVPFRQPTG please.
Result block: 1.86

Query block: Also, VFNFVSFRFDDTVD please.
Result block: 6.99

Query block: Also, GSLYVLAMLSGYVAKPYKIY please.
Result block: -0.072

Query block: Also, LRFRATLSVLLYLWDTSRHV please.
Result block: 1.76

Query block: Also, NMTKRWMVCYHFFFKNYDLT please.
Result block: 0.207

Query block: Also, MFERINALFNLQ please.
Result block: 3.46

Query block: Also, TIFSHVYLALLR please.
Result block: 0.382

Query block: Also, SWETKVHIYMTDMLFSRHMS please.
Result block: 2.63

Query block: Also, MLKWWLFTRSSSPGRHCRLD please.
Result block: -0.471

# input for lookup
Query block: Endpoint output: amyloid nucleation score of DERSLLDLHYCR . Value?
Result block: 0.912
